Tested on: E. coli
Experiment: MIC values, E. coli (Tables 1-4)
Type: cell-based
# MIC E. coli values compiled below

CC[C@@H]1CN(c2cc(O)c3nc4c5c6c7c(C)c(O)c5c(=O)c(c-4oc3c2)NC(=O)/C(C)=C\C=C\[C@H](C)[C@H](O)[C@@H](C)[C@@H](O)[C@@H](C)[C@H](O)[C@H](C)[C@@H](OC)/C=C/O[C@@](C)(O7)C6=O)C[C@H](CC)N1: 4 µg/mL
CO[C@H]1/C=C/O[C@@]2(C)Oc3c(C)c(O)c4c(=O)c(c5oc6cc(N7CCC(CCO)CC7)cc(O)c6nc-5c4c3C2=O)NC(=O)/C(C)=C\C=C\[C@H](C)[C@H](O)[C@@H](C)[C@@H](O)[C@@H](C)[C@H](OC(C)=O)[C@@H]1C: >8 µg/mL
CO[C@H]1/C=C/O[C@@]2(C)Oc3c(C)c(O)c4c(=O)c(c5oc6cc(N7CCC(F)(F)CC7)ccc6nc-5c4c3C2=O)NC(=O)/C(C)=C\C=C\[C@H](C)[C@H](O)[C@@H](C)[C@@H](O)[C@@H](C)[C@H](O)[C@@H]1C: >8 µg/mL

The record that follows has no MIC E. coli shown yet.
Supply reported MIC E. coli belonging to this compound: CCCC(=O)NC1CCN(c2cc(O)c3nc4c5c6c7c(C)c(O)c5c(=O)c(c-4oc3c2)NC(=O)/C(C)=C\C=C\[C@H](C)[C@H](O)[C@@H](C)[C@@H](O)[C@@H](C)[C@H](O)[C@H](C)[C@@H](OC)/C=C/O[C@@](C)(O7)C6=O)CC1
>8 µg/mL

====

System: E. coli
Test: MIC values, E. coli (Tables 1-4)
Format: cell-based
# MIC E. coli values compiled below

Example molecules with recorded MIC E. coli:
CO[C@H]1/C=C/O[C@@]2(C)Oc3c(C)c(O)c4c(=O)c(c5oc6cc(N7CCC(NC(C)=O)CC7)cc(O)c6nc-5c4c3C2=O)NC(=O)/C(C)=C\C=C\[C@H](C)[C@H](O)[C@@H](C)[C@@H](O)[C@@H](C)[C@H](O)[C@@H]1C: >8 µg/mL
CO[C@H]1/C=C/O[C@@]2(C)Oc3c(C)c(O)c4c(=O)c(c5oc6cc(N7CCC(NC(C)=O)CC7)cc(O)c6nc-5c4c3C2=O)NC(=O)/C(C)=C\C=C\[C@H](C)[C@H](O)[C@@H](C)[C@@H](O)[C@@H](C)[C@H](OC(C)=O)[C@@H]1C: >8 µg/mL
CO[C@H]1/C=C/O[C@@]2(C)Oc3c(C)c(O)c4c(=O)c(c5oc6cc(N7CCN(c8ccccc8)CC7)cc(O)c6nc-5c4c3C2=O)NC(=O)/C(C)=C\C=C\[C@H](C)[C@H](O)[C@@H](C)[C@@H](O)[C@@H](C)[C@H](O)[C@@H]1C: 4 µg/mL

The record that follows has no MIC E. coli shown yet.
Supply reported MIC E. coli belonging to this molecule: CO[C@H]1/C=C/O[C@@]2(C)Oc3c(C)c(O)c4c(=O)c(c5oc6cc(N7CCC(C)(NC(C)=O)CC7)cc(O)c6nc-5c4c3C2=O)NC(=O)/C(C)=C\C=C\[C@H](C)[C@H](O)[C@@H](C)[C@@H](O)[C@@H](C)[C@H](OC(C)=O)[C@@H]1C
>8 µg/mL
